- System: Human papillomavirus type 1a E7 protein (residues 1-88)
- assay-remarks: HPV1a E7 small-molecule binders, primary screen, biochemical, small-molecule microarray, residues 1-88, 635 nm (AID 1129)
- conditions: small-molecule microarray binding, fluorescence 635 nm; higher = more signal
Tag: rule met if measured composite z-score is not below 0.8, rule not met if it is.

>>> print(df.to_string())
                                   molecule  assigned_category
0  COC(=O)C1(CC(C)C)C=C2C(=C(C)C(=O)C2C)CN1 (stereo not drawn)       rule not met
1    CCCCC(=C=CC[C@@H](O)c1ccc(OCCO)cc1)CCO       rule not met
2  COCCCNC(=O)[C@@]1(Cc2ccccc2I)c2ccccc2C(=O)N(C2CCCCC2)[C@H]1c1ccc(CO)cc1           rule met
3  CC(C)(C)OC(=O)CC[C@]1(C(=O)N2CCOCC2)COC(c2ccc(OCCCO)cc2)=N1           rule met
4  COC(=O)[C@@]1(Cc2ccc(F)cc2)[C@H]2c3cc(C(=O)N4CCCC4)n(CCSCCO)c3C[C@H]2CN1C(=O)c1ccccc1       rule not met
5  C=CCNC(=O)[C@@H]1[C@H]2C(=O)O[C@H](c3ccccc3)[C@H](c3ccccc3)N2[C@H](c2ccc(OCCO)cc2)[C@@]12C(=O)Nc1ccc(C#CCNC(N)=O)cc12       rule not met
6  O=C1NC(=O)C2C1C=CC(C(O)c1ccc(F)cc1)N2Nc1ccc(Cl)cc1Cl (stereo not drawn)       rule not met
7  O=C1N(Cc2ccccc2)c2ccccc2C[C@@]12N=C(c1ccc(OCCCO)cc1)O[C@H]2c1ccccc1           rule met

----------
Listed here are compounds together with their documented composite z-score.
- Test system: Fibrinogen (Alexa647-labelled)
- assay-remarks: fibrinogen binders on compound microarrays, profiling panel, artefact control for SMM control-protein annotation, biochemical, small-molecule microarray, 635/667 nm fluorescence (AID 1131);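 also: z-score merges 667 nm fluorescence with per-spot signal-to-noise over triplicate slides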
- conditions: fibrinogen-A647 binding fluorescence, higher = more signal

compound	composite z-score
C=CCNC(=O)[C@H]1[C@@H]2C(=O)O[C@@H](c3ccccc3)[C@@H](c3ccccc3)N2[C@@H](c2ccc(O)cc2)[C@]12C(=O)Nc1ccccc12	0.13
CCCCN1CC=CC23O[C@@H]4/C=C\CCCOC(=O)C4[C@H]2C(=O)N(CCCCCCO)[C@@H]3C1=O (some centres undefined)	-1.21
C=CC[C@@]1(C(=O)NCCCOC)N=C(c2ccc(OCCCO)cc2)O[C@@H]1c1ccccc1CN=[N+]=[N-]	1.01
COC(=O)[C@@]1(Cc2ccc(OC)cc2)[C@@H]2[C@@H](CC(=O)[C@H]2CC(=O)C(=O)N(C)C)CN1C(=O)c1ccccc1	1
O=C1O[C@H](c2ccccc2)[C@H](c2ccccc2)N2[C@H]1[C@@H](C(=O)Nc1nc3ccccc3s1)[C@]1(C(=O)Nc3ccccc31)[C@H]2c1ccccc1OCCO	0.966
COc1ccc([Si](C)(C)[C@@H]2[C@@H](CC(=O)N(CCO)Cc3ccccc3)O[C@]3(C(=O)N(Cc4cccc(I)c4)c4ccccc43)[C@H]2C)cc1	0.604
C=C(CC1([C@@H](NP(=O)(c2ccccc2)c2ccccc2)[C@H]2C[C@@H]2CCCC)CC1)c1cccc(OC)c1	0.269
COCCOC(=O)N1C(=O)[C@@]2(c3cc(C#CCNC(N)=O)ccc31)[C@H](c1ccccc1OCCO)N1[C@H](c3ccccc3)[C@H](c3ccccc3)OC(=O)[C@H]1[C@@H]2C(=O)N1CCCCCCC1	0.858
O=C(N1CCOCC1)[C@]1(CCS(=O)(=O)c2ccccc2)N=C(c2ccc(OCCCO)cc2)O[C@@H]1c1ccccc1	0.996
COc1c(C)cc(-c2cc3c(c(CCc4ccccc4)n2)[Si](C(C)C)(C(C)C)O[C@H]3c2ccccc2)cc1C	-0.543
CN1C2C=C(c3ccc(CO)cc3)C(C3C(=O)N(C(N)=O)C(=O)C32)C1C1CC1 (centres undefined)	0.586
CC(C)c1ccc(NN2C(C(O)c3ccccc3)C=CC3C(=O)N(c4ccccc4)C(=O)C32)cc1 (centres undefined)	1.02
O=C1NC(=O)C2C1C=CC(C(O)c1ccc(F)cc1)N2Nc1ccc(Cl)cc1Cl (centres undefined)	-0.566
COc1cccc(C)c1NC(=O)O[C@H]1[C@H](OC(=O)Nc2ccccc2)[C@@H](OC(=O)Nc2ccccc2)[C@@H](OC)O[C@@H]1CO	1.01

meta.source: PubChem BioAssay
